assay_details: NCI Yeast Anticancer Drug Screen. Data for the bub3 strain (AID 167)
measurement_setup: S. cerevisiae bub3 mutant strain, at 5.0 µM (retest, dose inferred, filed as 0.5), active compounds read high
About 79,000 compounds went through this panel and 15% of them were active in at least one assay; those are over-represented in the sample as a whole.
readout: growth inhibition (%)
One number for each entry, in %.

Take a look at these entries with their results.
- molecule: "CC12CCC(O)CC1CCC1C2CCC2(C)C(C(=O)CC(O)C(F)(F)F)CCC12 (stereo unspecified)"
  observed_measurement: -15
- molecule: "ClCCN(CCCl)CCN1c2ccccc2Sc2ccc3ccccc3c21"
  observed_measurement: -5
- molecule: "[Br][Sn]([CH]1CCCCC1)([CH]1CCCCC1)[CH]1CCCCC1"
  observed_measurement: 23
- molecule: "Brc1ccc(N2C[N+](c3ccc(Br)cc3)=NC(c3ccccc3)=N2)cc1"
  observed_measurement: 2
- molecule: "ClCCN(CCCl)c1ccc(CNCCCNCc2ccc(N(CCCl)CCCl)cc2)cc1"
  observed_measurement: -3

List the reported growth inhibition of each molecule below.
1. CCCCCCCCCCCCC(=O)[O][Hg][c]1ccccc1
2. C[n+]1ccccc1-c1nc(-c2cccc[n+]2C)nc(-c2cccc[n+]2C)n1

[99, 19]

List the reported growth inhibition of each molecule below.
1. COC(=O)C(C)(C)[n+]1c(C)cc(C)cc1C
2. O=C(O)C1C2c3ccccc3C(c3ccccc32)C1C(=O)O (stereo unspecified)
3. CCCOc1ccc(/C=C/[N+](=O)[O-])cc1
4. CC[C@@]1(O)C[C@H](OC2CC(N(C)C)C(O)C(C)O2)c2c(O)c3c(c(O)c2[C@H]1OC1CC(N(C)C)C(O)C(C)O1)C(=O)c1cccc(O)c1C3=O (stereo partly specified)
5. CCOC(=O)C1CC12c1ccccc1-c1ccccc12 (stereo unspecified)
6. COc1cc(Br)cc(/C=C(\C)[N+](=O)[O-])c1O

1
2
-1
-9
1
-1

----------
assay_details: NCI Yeast Anticancer Drug Screen. Data for the mlh1 rad18 strain (AID 175)
measurement_setup: S. cerevisiae mlh1 rad18 strain growth inhibition; at 5.0 µM (retest, dose inferred, filed as 0.5)
About 79,000 compounds went through this panel and 15% of them were active in at least one assay; those are over-represented in the sample as a whole. Calls of active or inactive are those of the source. Rule as the data show it: active = growth inhibition above about 70%; inactive = the rest.
Can you answer with just one of these options? active, inactive

- compound: "CC(Br)CN1CCOCC1 (stereo not given)"
  class_label: "inactive"

Which outcome did this test record for the compound CC[PH+](CC)CC.CC[PH+](CC)CC.[Au] ?
inactive

Which outcome did this test record for the compound COC1CC(CC2CCC(C)C(C(C)C(=O)O)O2)OC2(OC(C)(C3CCC(C)(C4OC(C5OC(O)(CO)C(C)CC5C)CC4C)O3)CC2C)C1C (stereo not given) ?
inactive

Which outcome did this test record for the compound O=C1C(Br)=CC2(C=C1Br)CCNc1c(O)c3c4c(c12)=NCCC=4C=N3 ?
inactive

Which outcome did this test record for the compound CC[C@@]1(O)C(=O)OCc2c1cc1n(c2=O)Cc2cc3ccccc3nc2-1 ?
inactive

Which outcome did this test record for the compound CC(=O)O/C(=C1\C[C@H]2[C@@H]3CC=C4C[C@@H](OC(C)=O)CC[C@]4(C)[C@H]3CC[C@]2(C)C1=O)C(F)(F)F ?
inactive

Which outcome did this test record for the compound Cc1cn(CC2C=CC(CS[As](C)C)O2)c(=O)[nH]c1=O (stereo not given) ?
inactive

Which outcome did this test record for the compound C[C@]12CCc3nonc3C1CC[C@@H]1C2CC[C@]2(C)C(=O)CCC12 (stereo not given in full) ?
inactive

Which outcome did this test record for the compound COc1c(Br)cc(/C=C(/C)[N+](=O)[O-])cc1Br ?
inactive

Which outcome did this test record for the compound O=C(O)CCCc1cc(I)c(N(CCCl)CCCl)c(I)c1 ?
inactive
